Measured remaining activity at 10 µM, listed per entry.
# TARGET OR TEST SYSTEM: CDK1/cyclinB (Homo sapiens)
# Construct: purchased Eurofins Pharma Discovery Services (KinaseProfiler; Cerep BioPrint panel)
# Sequence (P06493 whole entry): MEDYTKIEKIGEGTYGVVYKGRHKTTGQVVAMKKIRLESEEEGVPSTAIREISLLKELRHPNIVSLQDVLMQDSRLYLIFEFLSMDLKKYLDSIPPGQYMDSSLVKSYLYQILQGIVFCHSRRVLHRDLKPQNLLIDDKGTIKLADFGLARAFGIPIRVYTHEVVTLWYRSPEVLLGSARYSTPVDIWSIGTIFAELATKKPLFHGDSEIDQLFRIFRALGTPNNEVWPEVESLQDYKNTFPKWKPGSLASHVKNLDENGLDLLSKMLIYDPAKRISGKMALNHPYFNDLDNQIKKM
# Sequence (P14635 whole entry partner): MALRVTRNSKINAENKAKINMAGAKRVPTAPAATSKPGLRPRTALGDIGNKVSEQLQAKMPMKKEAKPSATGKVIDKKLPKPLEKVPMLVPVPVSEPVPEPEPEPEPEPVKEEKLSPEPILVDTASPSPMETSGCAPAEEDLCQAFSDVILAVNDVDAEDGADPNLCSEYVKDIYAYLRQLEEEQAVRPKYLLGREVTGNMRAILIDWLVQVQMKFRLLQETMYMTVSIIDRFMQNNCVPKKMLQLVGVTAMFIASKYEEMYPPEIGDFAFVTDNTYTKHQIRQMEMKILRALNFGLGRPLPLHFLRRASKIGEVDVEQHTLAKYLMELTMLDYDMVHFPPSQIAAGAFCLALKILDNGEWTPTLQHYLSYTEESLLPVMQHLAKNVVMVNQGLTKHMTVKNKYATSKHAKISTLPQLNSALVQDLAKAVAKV
# METHOD NOTES: kinase selectivity panel
# Assay type: biochemical
# CONDITION INFO: read-out: percentage of control activity (POC), CDK1/cyclinB
Report the value in % with no unit label.

| COMPOUND | remaining activity at 10 µM / % |
| --- | --- |
| COc1c(NC(=O)c2ccc(C)c(-c3nnc4c(NCC(C)(C)C)nccn34)c2)cc(C(C)(C)C)cc1NS(C)(=O)=O [compound 7, reference compound] | 101 |

remaining activity at 10 µM reading for CC(C)(C)N1CCC(c2cc(-c3ccc(F)cc3Cl)c3cc[n+]([O-])c(-c4c(Cl)cccc4Cl)c3n2)CC1 [compound 2] : 100

remaining activity at 10 µM reading for Cc1ccc(C(=O)NCC2CC2)cc1-c1ccc2c(c1)NC(=O)C21CCCC1 [compound 3] : 96

remaining activity at 10 µM reading for CS(=O)(=O)N1CCN(c2ccc(Nc3ncc(C(N)=O)c(NC4CC4)n3)cc2)CC1 [compound 5] : 71

remaining activity at 10 µM reading for Cn1cc(-c2cccc(-c3nc(C(=O)NC4C5CC6CC4CC(O)(C6)C5)c(N)nc3N)c2)cn1 (centres unmarked) [compound 4] : 64
